# Assay Protocol: Partition coefficient (logP) (HPLC)
# Type: physicochemical
# Protocol Conditions: octanol/water
Attribute: logP

| Compound | logP |
| --- | --- |
| O=S(=O)(CS(=O)(=O)C(F)(F)F)c1ccc(F)cc1 | 1.3 |
| O=S(=O)(CS(=O)(=O)C(F)(F)F)c1ccc(Cl)c(Cl)c1 | 1.7 |
| CC(S(=O)(=O)c1ccc(OC(F)(F)F)cc1)S(=O)(=O)C(F)(F)F (stereo not drawn) | 3 |
| O=S(=O)(CS(=O)(=O)C(F)(F)F)c1ccc(C(F)(F)F)cc1 | 1 |
| CC(C)(C)c1ccc(S(=O)(=O)CS(=O)(=O)C(F)(F)F)cc1 | 2.4 |
| O=[N+]([O-])c1ccc(O)c([N+](=O)[O-])c1 [2,4-DINITROPHENOL] | 1.5 |
| O=S(=O)(CS(=O)(=O)C(F)(F)F)c1ccc(OC(F)(F)F)cc1 | 2.2 |
| O=S(=O)(CS(=O)(=O)C(F)(F)F)c1ccc(Cl)cc1 | 1.9 |

---

Attribute: pKa
# Assay Protocol: The pKa value in aqueous solution.
# Type: physicochemical
Attribute Measured: pKa

| Compound | Measured |
| --- | --- |
| O=[N+]([O-])c1ccc(O)c([N+](=O)[O-])c1 [2,4-DINITROPHENOL] | 4.6 |
| CC(S(=O)(=O)c1ccc(OC(F)(F)F)cc1)S(=O)(=O)C(F)(F)F (stereo not drawn) | 6.2 |
| O=S(=O)(CS(=O)(=O)C(F)(F)F)c1ccc(OC(F)(F)F)cc1 | 4.1 |
| CC(C)(C)c1ccc(S(=O)(=O)CS(=O)(=O)C(F)(F)F)cc1 | 5.1 |
| O=S(=O)(CS(=O)(=O)C(F)(F)F)c1ccc(Cl)cc1 | 4.4 |
| O=S(=O)(CS(=O)(=O)C(F)(F)F)c1ccc(C(F)(F)F)cc1 | 4 |
| O=S(=O)(CS(=O)(=O)C(F)(F)F)c1ccc(F)cc1 | 4.6 |
| O=S(=O)(CS(=O)(=O)C(F)(F)F)c1ccc(Cl)c(Cl)c1 | 4 |
